# Target System: P. aeruginosa LpxC (Pseudomonas aeruginosa (strain ATCC 15692 / DSM 22644 / CIP 104116 / JCM 14847 / LMG 12228 / 1C / PRS 101 / PAO1))
# Method Summary: biochemical
# Condition Details: 5 nM P. aeruginosa LpxC, 2.5 μM substrate, 1 hour at room temperature

| Mol | IC50 |
| --- | --- |
| CC(C)C(=O)N1C[C@H](NC(=O)[C@@H]2CC(F)(F)CN2)C[C@@H]1C(=O)NCc1ccc(C#CC#CC2CC2)cc1 | 50 to 100 nM |
| CC(C)C(=O)N1C[C@H](NC(=O)[C@@H]2C[C@H](O)CN2)C[C@@H]1C(=O)NCc1ccc(C#Cc2ccc(CN3CCOCC3)cc2)cc1 | 100 to 1000 nM |
| O=C(NC[C@H]1C[C@@H](NC(=O)[C@@H]2C[C@H](F)CN2)CN1C(=O)C1CC1)c1ccc(C#Cc2ccc(CN3CCOCC3)cc2)c(F)c1 | < 50 nM |
| CC(C)C(=O)N1C[C@H](NC(=O)[C@H]2NCC[C@H]2O)C[C@@H]1C(=O)NCc1ccc(C#CC#CC2CC2)cc1 | 100 to 1000 nM |
| O=C(N[C@@H]1C[C@H](C(=O)NCc2ccc(C#CC#CC3CC3)cc2)N(C(=O)C2CCNCC2)C1)[C@@H]1C[C@H](F)CN1 | 100 to 1000 nM |
| Cc1cc(C#Cc2ccc(CN3CCOCC3)cc2)ccc1C(=O)NC[C@H]1C[C@@H](NC(=O)[C@@H]2C[C@H](F)CN2)CN1C(=O)C1CC1 | 50 to 100 nM |

----------
# Target System: E. coli LpxC (Escherichia coli (strain K12), UniProt P0A725)
# Sequence (P0A725 whole entry): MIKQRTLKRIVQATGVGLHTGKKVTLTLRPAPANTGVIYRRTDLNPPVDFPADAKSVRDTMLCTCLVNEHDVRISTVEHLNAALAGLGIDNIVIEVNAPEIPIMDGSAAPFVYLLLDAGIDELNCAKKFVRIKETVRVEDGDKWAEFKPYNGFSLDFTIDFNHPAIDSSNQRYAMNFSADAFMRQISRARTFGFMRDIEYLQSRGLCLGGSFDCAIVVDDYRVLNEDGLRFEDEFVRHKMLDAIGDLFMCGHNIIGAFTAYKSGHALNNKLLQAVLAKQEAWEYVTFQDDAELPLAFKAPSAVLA
# Method Summary: in vitro substrate deacetylation assay for inhibition of LpxC (ADDA analysis)
# Condition Details: 5 nM E. coli LpxC, 2.5 μM substrate, 1 hour at room temperature
Measured Quantity: IC50

| Compound | Meas Value |
| --- | --- |
| CNC(=O)N1C[C@H](NC(=O)[C@@H]2C[C@H](F)CN2)C[C@@H]1C(=O)NCc1ccc(C#Cc2ccc(CN3CCOCC3)cc2)cc1 [Example 9AR] | < 500 nM |
| O=C(N[C@@H]1C[C@H](C(=O)NCc2ccc(C#CC#CC3CC3)cc2)N(C(=O)C2CCNCC2)C1)[C@@H]1C[C@H](F)CN1 [Example 9P] | 2500 to 10000 nM |
| NCCCC(=O)N1C[C@H](NC(=O)[C@@H]2C[C@H](F)CN2)C[C@@H]1C(=O)NCc1ccc(C#CC#CC2CC2)cc1 [Example 9O] | 2500 to 10000 nM |
| CC(C)C(=O)N1C[C@H](NC(=O)[C@@H]2CCCN2)C[C@@H]1C(=O)NCc1ccc(C#Cc2ccc(CN3CCOCC3)cc2)cc1 [Example 9K] | 500 to 2500 nM |
| CC(C)C(=O)N1C[C@H](NC(=O)[C@@H]2C[C@@H](C#N)CN2)C[C@@H]1C(=O)NCc1ccc(C#Cc2ccc(CN3CCOCC3)cc2)cc1 [Example 9AC] | 500 to 2500 nM |
| CC(C)C(=O)N1C[C@H](NC(=O)[C@H]2NCC[C@H]2O)C[C@@H]1C(=O)NCc1ccc(C#CC#CC2CC2)cc1 [Example 9W] | > 10000 nM |
| O=C(N[C@@H]1C[C@H](C(=O)NCc2ccc(C#CC#CC3CC3)cc2)N(CCO)C1)[C@@H]1C[C@H](F)CN1 [Example 9AQ] | 2500 to 10000 nM |
| O=C(NC[C@H]1C[C@@H](NC(=O)[C@@H]2C[C@H](F)CN2)CN1C(=O)C1CC1)c1ccc(C#Cc2ccc(CN3CCOCC3)cc2)c(F)c1 [Example 8] | < 500 nM |
| CC(C)C(=O)N1C[C@H](NC(=O)[C@H]2NCC[C@@H]2O)C[C@@H]1C(=O)NCc1ccc(C#Cc2ccc(CN3CCOCC3)cc2)cc1 [Example 9AA] | 500 to 2500 nM |
| CC(C)C(=O)N1C[C@H](NC(=O)[C@H]2NCC[C@@H]2O)C[C@@H]1C(=O)NCc1ccc(C#CC#CC2CC2)cc1 [Example 9AB] | 500 to 2500 nM |
| O=C(NC[C@H]1C[C@@H](NC(=O)[C@@H]2C[C@H](F)CN2)CN1C(=O)C1CC1)c1ccc(C#Cc2ccccc2)cc1 [Example 9AX] | < 500 nM |
| COC(=O)N1C[C@H](NC(=O)[C@@H]2C[C@H](F)CN2)C[C@@H]1C(=O)NCc1ccc(C#Cc2ccc(CN3CCOCC3)cc2)cc1 [Example 9AG] | < 500 nM |
| CC(C)C(=O)N1C[C@H](NC(=O)[C@@H]2CC(F)(F)CN2)C[C@@H]1C(=O)NCc1ccc(C#Cc2ccccc2)cc1 [Example 9C] | 500 to 2500 nM |

----------
# Target System: E. coli LpxC (Escherichia coli (strain K12), UniProt P0A725)
# Method Summary: in vitro substrate deacetylation assay for inhibition of LpxC (ADDA analysis)
# Condition Details: 5 nM E. coli LpxC, 2.5 μM substrate, 1 hour at room temperature
pIC50: −log10 of the molar value.

| Mol | Target System | pIC50 |
| --- | --- | --- |
| CNCCC(=O)N1C[C@H](NC(=O)[C@@H]2C[C@H](F)CN2)C[C@@H]1C(=O)NCc1ccc(C#CC#CC2CC2)cc1 | E. coli LpxC (Escherichia coli (strain K12), UniProt P0A725) | 5.00 to 5.60 |
| CS(=O)(=O)CCN1C[C@H](NC(=O)[C@@H]2C[C@H](F)CN2)C[C@@H]1C(=O)NCc1ccc(C#CC#CC2CC2)cc1 | E. coli LpxC (Escherichia coli (strain K12), UniProt P0A725) | 5.60 to 6.30 |
| CC(C)C(=O)N1C[C@H](NC(=O)[C@@H]2C[C@H](C#N)CN2)C[C@@H]1C(=O)NCc1ccc(C#CC#CC2CC2)cc1 | E. coli LpxC (Escherichia coli (strain K12), UniProt P0A725) | 5.60 to 6.30 |

----------
# Target System: P. aeruginosa LpxC (Pseudomonas aeruginosa (strain ATCC 15692 / DSM 22644 / CIP 104116 / JCM 14847 / LMG 12228 / 1C / PRS 101 / PAO1), UniProt P47205)
# Method Summary: biochemical
# Condition Details: 5 nM P. aeruginosa LpxC, 2.5 μM substrate, 1 hour at room temperature
pIC50: −log10 of the molar value.

| Mol | pIC50 |
| --- | --- |
| CC(C)C(=O)N1C[C@H](NC(=O)[C@@H]2CCCN2)C[C@@H]1C(=O)NCc1ccc(C#Cc2ccc(CN3CCOCC3)cc2)cc1 | 7.00 to 7.30 |
| CC(C)C(=O)N1C[C@H](NC(=O)[C@@H]2C[C@H](C#N)CN2)C[C@@H]1C(=O)NCc1ccc(C#CC#CC2CC2)cc1 | > 7.30 |
| O=C(NC[C@H]1C[C@@H](NC(=O)[C@@H]2C[C@H](F)CN2)CN1C(=O)C1CC1)c1ccc(C#Cc2ccc(CN3CCOCC3)cc2)cc1 | > 7.30 |
| CC(C)C(=O)N1C[C@H](NC(=O)[C@@H]2C[C@H](F)CN2)C[C@@H]1C(=O)NCc1ccc(C#Cc2ccc(CN3CCOCC3)cc2)cc1 | > 7.30 |
| CS(=O)(=O)CCN1C[C@H](NC(=O)[C@@H]2C[C@H](F)CN2)C[C@@H]1C(=O)NCc1ccc(C#CC#CC2CC2)cc1 | 6.00 to 7.00 |
| CC(C)C(=O)N1C[C@H](NC(=O)[C@H]2NCC[C@@H]2O)C[C@@H]1C(=O)NCc1ccc(C#CC#CC2CC2)cc1 | > 7.30 |

----------
# Target System: E. coli LpxC (Escherichia coli (strain K12))
# Method Summary: in vitro substrate deacetylation assay for inhibition of LpxC (ADDA analysis)
# Condition Details: 5 nM E. coli LpxC, 2.5 μM substrate, 1 hour at room temperature
pIC50: −log10 of the molar value.

| Mol | Target System | pIC50 |
| --- | --- | --- |
| C[C@@H](CN)C(=O)N1C[C@H](NC(=O)[C@@H]2C[C@H](F)CN2)C[C@@H]1C(=O)NCc1ccc(C#CC#CC2CC2)cc1 | E. coli LpxC (Escherichia coli (strain K12)) | 5.60 to 6.30 |
| CC(C)C(=O)N1C[C@H](NC(=O)[C@@H]2CC(F)(F)CN2)C[C@@H]1C(=O)NCc1ccc(C#Cc2ccc(CN3CCOCC3)cc2)cc1 | E. coli LpxC (Escherichia coli (strain K12)) | 5.60 to 6.30 |
| CC(C)C(=O)N1C[C@H](NC(=O)[C@@H]2CCCN2)C[C@@H]1C(=O)NCc1ccc(C#CC#CC2CC2)cc1 | E. coli LpxC (Escherichia coli (strain K12)) | 5.60 to 6.30 |
| COCCN(C(=O)[C@@H]1C[C@H](F)CN1)[C@@H]1C[C@H](C(=O)NCc2ccc(C#Cc3ccc(CN4CCOCC4)cc3)cc2)N(C(=O)C2CC2)C1 | E. coli LpxC (Escherichia coli (strain K12)) | < 5.00 |
| CC(C)C(=O)N1C[C@H](NC(=O)[C@@H]2C[C@H](F)CN2)C[C@@H]1C(=O)NCc1ccc(C#CC#CC2CC2)cc1 | E. coli LpxC (Escherichia coli (strain K12)) | 5.60 to 6.30 |
| Cc1cc(C#Cc2ccc(CN3CCOCC3)cc2)ccc1C(=O)NC[C@H]1C[C@@H](NC(=O)[C@@H]2C[C@H](F)CN2)CN1C(=O)C1CC1 | E. coli LpxC (Escherichia coli (strain K12)) | > 6.30 |
| CN(C)C(=O)N1C[C@H](NC(=O)[C@@H]2C[C@H](F)CN2)C[C@@H]1C(=O)NCc1ccc(C#Cc2ccc(CN3CCOCC3)cc2)cc1 | E. coli LpxC (Escherichia coli (strain K12)) | 5.60 to 6.30 |
| COCCN1C[C@H](NC(=O)[C@@H]2C[C@H](F)CN2)C[C@@H]1C(=O)NCc1ccc(C#CC#CC2CC2)cc1 | E. coli LpxC (Escherichia coli (strain K12)) | 5.00 to 5.60 |
| CC(C)C(=O)N1C[C@H](NC(=O)[C@@H]2C[C@@H](O)CN2)C[C@@H]1C(=O)NCc1ccc(C#Cc2ccc(CN3CCOCC3)cc2)cc1 | E. coli LpxC (Escherichia coli (strain K12)) | > 6.30 |
| C[C@H](CN)C(=O)N1C[C@H](NC(=O)[C@@H]2C[C@H](F)CN2)C[C@@H]1C(=O)NCc1ccc(C#CC#CC2CC2)cc1 | E. coli LpxC (Escherichia coli (strain K12)) | 5.60 to 6.30 |
| CC(C)C(=O)N1C[C@H](NC(=O)[C@@H]2C[C@H](F)CN2)C[C@@H]1C(=O)NCc1ccc(C#CC2CC2)cc1 | E. coli LpxC (Escherichia coli (strain K12)) | < 5.00 |
| CC(C)C(=O)N1C[C@H](NC(=O)[C@@H]2C[C@H](F)CN2)C[C@@H]1C(=O)NCc1ccc(C#Cc2ccc(CN3CCOCC3)cc2)cc1 | E. coli LpxC (Escherichia coli (strain K12)) | > 6.30 |

Each recorded value in this set is attributed to patent US20250171400A1.
